system: tobacco budworm (Heliothis virescens [Fabricius]); assay: surface-treated diet test against tobacco budworm; type: in vivo; settings: 0.25 millimolar on the surface of the diet; second instar larvae; five-day exposure
measure: Percent Mortality
Could you give the number and then its unit, please?

Identify Percent Mortality associated with the molecule CSC(=C[N+](=O)[O-])NCCN(CCC(F)(F)F)Cc1ccc(Cl)nc1 [Compound 3] 50%

Input C#CCN(CCN/C(=C/[N+](=O)[O-])OC)Cc1ccc(Cl)nc1 [Compound 244] , output reported Percent Mortality. 83%

Specify measured Percent Mortality for C#CCN(CCNC(=C[N+](=O)[O-])SC)Cc1ccc(Cl)nc1 [Compound 248] . 100%

Recall and state the measured Percent Mortality for C=CCN(CCNC(=C[N+](=O)[O-])SCc1ccc(C(F)(F)F)cc1)Cc1ccc(Cl)nc1 [Compound 328] . 83%

Please indicate Percent Mortality recorded for CSC(=C[N+](=O)[O-])NCCN(CC#N)Cc1ccc(Cl)nc1 [Compound 10] 17%

Read the entry C=CCN(CCNC(=C[N+](=O)[O-])OC)Cc1ccc(Cl)nc1 [Compound 242] and write its reported Percent Mortality. 83%
